Values were extracted from ChEMBL document CHEMBL1914314.

Target: CYP1A2 (Homo sapiens, UniProt P05177)
Sequence (P05177 whole entry): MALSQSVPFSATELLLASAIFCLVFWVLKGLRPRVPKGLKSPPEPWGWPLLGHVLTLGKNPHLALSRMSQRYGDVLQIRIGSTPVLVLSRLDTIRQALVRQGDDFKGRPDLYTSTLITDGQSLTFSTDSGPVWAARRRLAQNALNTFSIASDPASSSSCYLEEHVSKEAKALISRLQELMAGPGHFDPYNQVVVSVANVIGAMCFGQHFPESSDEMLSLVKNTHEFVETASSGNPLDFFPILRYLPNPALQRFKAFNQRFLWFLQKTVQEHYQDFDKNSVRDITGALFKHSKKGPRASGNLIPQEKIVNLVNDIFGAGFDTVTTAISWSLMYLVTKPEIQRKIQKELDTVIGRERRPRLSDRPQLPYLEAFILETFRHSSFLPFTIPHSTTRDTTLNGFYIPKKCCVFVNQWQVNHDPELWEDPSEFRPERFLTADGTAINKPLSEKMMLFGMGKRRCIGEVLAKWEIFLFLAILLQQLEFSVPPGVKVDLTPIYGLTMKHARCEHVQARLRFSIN
Test: Inhibition of CYP1A2 at 3 uM
Format: ADME
testReadout: inhibition at 3 µM (%)

Some entries whose results are on file:
Fc1ccccc1Cc1nc(-c2ncn[nH]2)n2ccccc12	39
FC(F)(F)c1n[nH]c(-c2nc(Cc3cncnc3)c3ccccn23)n1	82
CS(=O)(=O)c1n[nH]c(-c2nc(Cc3ccccc3F)c3ccccn23)n1	3
Fc1ccccc1Cc1nc(-c2nc(Cc3ccccc3)n[nH]2)n2ccccc12	29
Fc1ccccc1Cc1nc(-c2nc(C(F)(F)F)n[nH]2)c2ccccn12	66
Cc1n[nH]c(-c2nc(Cc3ccccc3F)c3ccccn23)n1	23

P = Fc1ccccc1Cc1nc(-c2nc(C(F)(F)C(F)(F)F)n[nH]2)n2ccccc12
Q = OCc1ccc(-c2nn(Cc3ccccc3)c3ccccc23)o1
R = Fc1ccccc1Cn1nc(-c2nc(C(F)(F)F)n[nH]2)c2cccnc21
S = Cc1ncc(Cc2nc(-c3nc(C(F)(F)F)n[nH]3)n3ccccc23)cn1
Query: Provide the items ranked by increasing inhibition at 3 µM. Please list each label once, in the requested order.
Result: S, R, P, Q
